Can you tell me IC50 for the items I'm about to list?
# Tested on: HCV NS5B (Hepatitis C virus genotype 1b, UniProt Q9WMX2)
# Construct: The protein was expressed with an 18 amino acid C-terminal truncation to enhance the solubility; made in house; host or cells: E. coli BL21(DE3)
# Sequence (Q9WMX2 2420-2992): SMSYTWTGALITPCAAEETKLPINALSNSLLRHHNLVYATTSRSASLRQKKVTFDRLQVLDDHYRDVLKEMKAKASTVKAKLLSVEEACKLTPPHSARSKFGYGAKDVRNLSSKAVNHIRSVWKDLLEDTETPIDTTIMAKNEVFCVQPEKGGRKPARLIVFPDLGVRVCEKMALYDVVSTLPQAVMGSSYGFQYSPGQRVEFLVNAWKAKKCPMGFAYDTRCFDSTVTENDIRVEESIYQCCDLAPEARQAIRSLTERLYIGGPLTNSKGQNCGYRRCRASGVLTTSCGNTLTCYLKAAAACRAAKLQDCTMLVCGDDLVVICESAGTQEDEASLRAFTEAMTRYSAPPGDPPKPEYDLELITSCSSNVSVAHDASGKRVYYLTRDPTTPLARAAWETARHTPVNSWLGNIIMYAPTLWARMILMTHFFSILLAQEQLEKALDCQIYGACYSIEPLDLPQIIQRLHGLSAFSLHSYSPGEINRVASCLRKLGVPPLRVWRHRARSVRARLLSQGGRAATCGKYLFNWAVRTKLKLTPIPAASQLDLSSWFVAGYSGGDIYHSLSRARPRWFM
# Test summary: HCV NS5B RdRp enzyme assay (standard / modified)
# Assay type: biochemical
# Stated conditions: HCV RdRp genotype 1b; standard or modified assay not specified; read-out: IC50

Below: 2 compounds and their reported IC50.
Compound | IC50
COc1ccc2c(c1)C1CC1(C(=O)N1C3CC1CN(C)C3)Cn1c-2c(C2CCCCC2)c2ccc(C(=O)NS(=O)(=O)CCCF)cc21 (stereo not drawn) | 2.4 to 500 nM
COc1ccc2c(c1)C1CC1(C(=O)N1C3CC1CN(C)C3)Cn1c-2c(C2CCCCC2)c2ccc(C(=O)NS(=O)(=O)N3CCN(C)CC3)cc21 (stereo not drawn) | 2.4 to 500 nM

Next compound, please.
IC50 reading for COc1ccc2c(c1)C1CC1(C(=O)N1[C@@H]3C[C@H]1CN(C)C3)Cn1c-2c(C2CCCCC2)c2ccc(C(=O)NS(=O)(=O)N3CCC3)cc21 (stereo partly drawn) : 2.4 to 500 nM
